- System: Lmaj5FURes
- Assay details: microbe, parasite or virus in culture
- Assay type: cell-based, Leishmania major
- Assay setup: Lmaj5FURes vs L. major WT
- Method: Sensitivity assays of Leishmania strains to various drugs using the viability dye resazurin (Alamar Blue) (Sigma-Aldrich) were performed using a protocol adapted from [Räz et al. (1997)], as described ([Al-Salabi et al., 2003], [Gould et al., 2008]). […] Each experiment was performed independently at least 4 times; statistical significance was determined using Student's unpaired t-test.
Readout label: RF (Resistance Factor = IC50 (resistant clone)/IC50 (WT))
Please give the numeric answer without any surrounding text.

Given smiles	Recorded measurement
N=C(N)c1ccc(/N=N/Nc2ccc(C(=N)N)cc2)cc1	1.02
O=c1[nH]c(=O)n([C@@H]2O[C@H](CO)[C@@H](O)[C@H]2O)cc1F	6.1
Nc1nc(=O)n([C@H]2C[C@H](O)[C@@H](CO)O2)cc1F	0.4
O=c1[nH]cc(F)c(=O)[nH]1	17

Challenge: Request the reported RF (Resistance Factor = IC50 (resistant clone)/IC50 (WT)) associated with `O=c1[nH]c(=O)n([C@H]2C[C@H](O)[C@@H](CO)O2)cc1F`
Response given: 3.6
